# Tested on: SARS-CoV
# test.summary: Antiviral activity against SARS-CoV isolate Frankfurt-1 infected in African green monkey Vero E6 cells incubated for 3 days
# Format: functional, organism-based
# condition.set: Severe acute respiratory syndrome-related coronavirus, Frankfurt 1, Vero C1008, 72 h
reported.property: pEC50
Quick note: pEC50 values are minus log10 of concentrations in mol/L.

Lookup: GET /values?readout=pEC50&system=SARS-CoV&item= CCN(CC)CCCC(C)Nc1ccnc2cc(Cl)ccc12 (stereo unspecified)
Found: 5.39

###

# Test system: SARS-CoV
# test.summary: Antiviral activity against SARS-CoV isolate Frankfurt-1 infected in African green monkey Vero E6 cells incubated for 3 days by MTS assay
# Assay type: functional, organism-based
# condition.set: Severe acute respiratory syndrome-related coronavirus, Frankfurt 1, Vero C1008, 72 h
reported.property: IC50 (µM)
Answer in µM, number only, no unit symbol.

Lookup: May I ask what IC50 has been recorded for CCN(CC)CCCC(C)Nc1ccnc2cc(Cl)ccc12 (stereo unspecified) ?
Found: 8.8

###

# test.summary: Cytotoxicity against African green monkey Vero E6 cells incubated for 72 hrs by MTS assay
# Type: cell-based, Vero C1008
# condition.set: chlorocebus sabaeus
reported.property: CC50 at 72 h (µM)
Response body: numeric value in µM, unit text excluded.

Lookup: Would you kindly share the measured CC50 at 72 h for O[C@H]1[C@H]2c3cc4c(cc3CN3CCC(=C[C@@H]1O)[C@H]23)OCO4 ?
Found: 14.9

###

# test.summary: Selectivity ratio of CC50 for African green monkey Vero cells to EC50 for SARS-CoV FFM2 infected in African green monkey Vero cells
# Format: toxicity
# condition.set: read-out: Ratio CC50/EC50
reported.property: selectivity ratio
Form field (numeric): enter value without unit.

Lookup: Recorded selectivity ratio for CC1(C)[C@@H](O[C@H]2O[C@H](C(=O)O)[C@@H](O)[C@H](O)[C@H]2O[C@@H]2O[C@H](C(=O)O)[C@@H](O)[C@H](O)[C@H]2O)CC[C@]2(C)[C@H]3C(=O)C=C4[C@@H]5C[C@@](C)(C(=O)O)CC[C@]5(C)CC[C@@]4(C)[C@]3(C)CC[C@@H]12 , please?
Found: 66

###

# Test system: SARS-CoV
# test.summary: Antiviral activity against SARS-CoV BJ-001 infected in African green monkey Vero E6 cells assessed as reduction in virus induced cytopathic effect incubated for 72 hrs by MTS/phenazine methosulfate method
# Format: functional, organism-based
# condition.set: Severe acute respiratory syndrome-related coronavirus, BJ-001, Vero C1008, 72 h
reported.property: IC50

Lookup: Which value of IC50 has been reported for O[C@H]1[C@H]2c3cc4c(cc3CN3CCC(=C[C@@H]1O)[C@H]23)OCO4 [LYCORINE] in the records?
Found: 15.7 nM

###

# test.summary: in vitro
# condition.set: rhesus monkey, LLC-MK2 cells
reported.property: CC50 at 72 h (µM)
Give a bare numeral; the unit µM is implied.

Please review the following examples before continuing.
>  <molecule>
COc1c(C)c2c(c(O)c1C/C=C(\C)CCC(=O)OCCN1CCOCC1)C(=O)OC2 [MYCOPHENOLATE MOFETIL]

>  <assay.value>
3.01

$$$$
>  <molecule>
CC[C@H]1CN2CCc3cc(OC)c(OC)cc3[C@@H]2C[C@@H]1C[C@H]1NCCc2cc(OC)c(OC)cc21

>  <assay.value>
3.63

$$$$
>  <molecule>
COc1c(C)c2c(c(O)c1C/C=C(\C)CCC(=O)O)C(=O)OC2

>  <assay.value>
3.44

$$$$

Lookup: Requested field: CC50 at 72 h. Item: O[C@H]1[C@H]2c3cc4c(cc3CN3CCC(=C[C@@H]1O)[C@H]23)OCO4
Found: 3.81

###

# Tested on: Zaire ebolavirus
# test.summary: Antiviral activity against Zaire Ebola virus infected in African green monkey Vero E6 cells measured after 5 days by immunofocus assay
# Assay type: functional, organism-based
# condition.set: Vero C1008, 120 h
reported.property: pIC50
Friendly reminder that pIC50 comes from taking -log10 of the concentration in mol/L.

Lookup: Quick check: pIC50 of NC(=O)c1nc(F)cnc1O ?
Found: 4.17

###

CC50 at 48 h values for the compounds below.
# test.summary: Cytotoxicity against African green monkey Vero E6 cells incubated for 2 days by the MTS assay
# Format: cell-based, Vero C1008
# condition.set: chlorocebus sabaeus, time 2 day
Reply with just the number (in µM).

>  <query.smiles>
COC(=O)[C@H]1[C@H]2C[C@@H]3c4[nH]c5cc(OC)ccc5c4CCN3C[C@H]2C[C@@H](OC(=O)c2cc(OC)c(OC)c(OC)c2)[C@@H]1OC

>  <reported.property>
CC50 at 48 h

>  <assay.value>
25

$$$$

Lookup: Quick one: CC50 at 48 h of CC(C)[C@@H]1NC(=O)[C@H](C)OC(=O)[C@@H](C(C)C)NC(=O)[C@@H](C(C)C)OC(=O)[C@H](C(C)C)NC(=O)[C@H](C)OC(=O)[C@@H](C(C)C)NC(=O)[C@@H](C(C)C)OC(=O)[C@H](C(C)C)NC(=O)[C@H](C)OC(=O)[C@@H](C(C)C)NC(=O)[C@@H](C(C)C)OC1=O ?
Found: 68

Lookup: Fill in: CC50 at 48 h of C/C=C(\C)C(=O)O[C@H]1[C@H](OC(C)=O)[C@]2(CO)[C@H](O)C[C@]3(C)C(=CC[C@@H]4[C@@]5(C)CC[C@H](O[C@@H]6O[C@H](C(=O)O)[C@@H](O[C@@H]7O[C@H](CO)[C@@H](O)[C@H](O)[C@H]7O)[C@H](O)[C@H]6O[C@@H]6O[C@H](CO)[C@@H](O)[C@H](O)[C@H]6O)[C@](C)(CO)[C@@H]5CC[C@]43C)[C@@H]2CC1(C)C is ___
Found: 25

###

# System: SARS-CoV
# test.summary: Antiviral actvity against SARS-CoV GZ50 infected in Rhesus macaque FRhK-4 cells assessed as reduction in virus-induced cytopathic effect incubated for 24 to 48 hrs by phase-contrast microscopy
# Format: functional, organism-based
# condition.set: Severe acute respiratory syndrome-related coronavirus, GZ50, FRhK-4
reported.property: EC50

Lookup: Which EC50 value belongs to Cc1ncc(CO)c(C23OC4(O)CC(O)(CC(O)(C4)O2)O3)c1O ?
Found: < 10 µM

###

Catalogue of CC50 at 1 h readings, one per entry.
# test.summary: Cytotoxicity against human Huh-7 cells incubated for 1 hr by MTS assay
# Assay type: cell-based

>  <compound>
Cc1cccc(C)c1OCC(=O)N[C@@H](Cc1ccccc1)[C@@H](O)C[C@H](Cc1ccccc1)NC(=O)[C@H](C(C)C)N1CCCNC1=O

>  <CC50 at 1 h>
> 37.6 µM

$$$$

We now examine a further compound.
Lookup: Quick one: CC50 at 1 h of CCN(CC)CCCC(C)Nc1ccnc2cc(Cl)ccc12 (configuration not stated) ?
Found: > 50 µM

###

# maps each entry to its selectivity ratio
# test.summary: Selectivity index, ratio of CC50 for African green monkey Vero E6 cells to EC50 for SARS-CoV infected in African green monkey Vero E6 cells
# Type: toxicity, Vero C1008
# condition.set: read-out: Ratio CC50/EC50
The reply should be a number, written without any unit.

Lookup: Which selectivity ratio value belongs to CC(C)[C@@H]1NC(=O)[C@H](C)OC(=O)[C@@H](C(C)C)NC(=O)[C@@H](C(C)C)OC(=O)[C@H](C(C)C)NC(=O)[C@H](C)OC(=O)[C@@H](C(C)C)NC(=O)[C@@H](C(C)C)OC(=O)[C@H](C(C)C)NC(=O)[C@H](C)OC(=O)[C@@H](C(C)C)NC(=O)[C@@H](C(C)C)OC1=O ?
Found: 80

Lookup: So what does the record say about selectivity ratio for COC(=O)[C@H]1[C@H]2C[C@@H]3c4[nH]c5cc(OC)ccc5c4CCN3C[C@H]2C[C@@H](OC(=O)c2cc(OC)c(OC)c(OC)c2)[C@@H]1OC ?
Found: 7.3

Lookup: I have this molecule here, C/C=C(\C)C(=O)O[C@H]1[C@H](OC(C)=O)[C@]2(CO)[C@H](O)C[C@]3(C)C(=CC[C@@H]4[C@@]5(C)CC[C@H](O[C@@H]6O[C@H](C(=O)O)[C@@H](O[C@@H]7O[C@H](CO)[C@@H](O)[C@H](O)[C@H]7O)[C@H](O)[C@H]6O[C@@H]6O[C@H](CO)[C@@H](O)[C@H](O)[C@H]6O)[C@](C)(CO)[C@@H]5CC[C@]43C)[C@@H]2CC1(C)C , and I need its recorded selectivity ratio.
Found: 2.5

###

# test.summary: Cytotoxicity against African green monkey Vero E6 cells incubated for 3 days by the MTS assay
# Assay type: cell-based, Vero C1008
# condition.set: chlorocebus sabaeus, time 3 day
reported.property: CC50 at 72 h

>  <molecule>
Cc1cccc(C)c1OCC(=O)N[C@@H](Cc1ccccc1)[C@@H](O)C[C@H](Cc1ccccc1)NC(=O)[C@H](C(C)C)N1CCCNC1=O [LOPINAVIR]

>  <CC50 at 72 h>
> 32 µM

$$$$

Next molecule, CC50 at 72 h to be filled in.
Lookup: Returns the measured CC50 at 72 h for the input molecule. Input: CCN(CC)CCCC(C)Nc1ccnc2cc(Cl)ccc12 (configuration not stated) [CHLOROQUINE]
Found: > 128 µM
